# Protocol: Comparative solubility in Milli-Q purified water (HPLC)
# Condition label: water, 24 hr
Returns Condition met if the recorded pH is greater than or equal to 4, and Condition not met otherwise.

Q: Is it the case that CC(C)(C=C(C#N)C(=O)N1CCCC(n2nc(-c3ccc(Oc4ccccc4)cc3F)c3c(N)ncnc32)C1)N1CCN(C2COC2)CC1.O=C(O)C(=O)O (centres unmarked) [Oxalate salt] has pH reaching or exceeding 4?
A: Condition not met

Q: Is the recorded value of pH equal to or greater than 4 for this compound? CC(C)(C=C(C#N)C(=O)N1CCCC(n2nc(-c3ccc(Oc4ccccc4)cc3F)c3c(N)ncnc32)C1)N1CCN(C2COC2)CC1 (centres unmarked) [Compound (I) amorphous]
A: Condition met

Q: Quick check: does CC(C)(C=C(C#N)C(=O)N1CCCC(n2nc(-c3ccc(Oc4ccccc4)cc3F)c3c(N)ncnc32)C1)N1CCN(C2COC2)CC1 (centres unmarked) [Compound (I) Form B] have pH greater than or equal to 4?
A: Condition met

Q: Check if pH >= 4 (inclusive). Item: CC(C)(C=C(C#N)C(=O)N1CCCC(n2nc(-c3ccc(Oc4ccccc4)cc3F)c3c(N)ncnc32)C1)N1CCN(C2COC2)CC1.O=C(O)/C=C\C(=O)O (centres unmarked) [Maleate]
A: Condition not met
